Assignment: determine reported IC50 for the given molecules.
Target: 5-HT4 receptor (Cavia porcellus)
Construct: striatum was isolated which was cryopreserved at −80° C. until use; from tissue; host or cells: guinea pig (Slc-Hartley) striatum membranes
Sequence (O70528 whole entry): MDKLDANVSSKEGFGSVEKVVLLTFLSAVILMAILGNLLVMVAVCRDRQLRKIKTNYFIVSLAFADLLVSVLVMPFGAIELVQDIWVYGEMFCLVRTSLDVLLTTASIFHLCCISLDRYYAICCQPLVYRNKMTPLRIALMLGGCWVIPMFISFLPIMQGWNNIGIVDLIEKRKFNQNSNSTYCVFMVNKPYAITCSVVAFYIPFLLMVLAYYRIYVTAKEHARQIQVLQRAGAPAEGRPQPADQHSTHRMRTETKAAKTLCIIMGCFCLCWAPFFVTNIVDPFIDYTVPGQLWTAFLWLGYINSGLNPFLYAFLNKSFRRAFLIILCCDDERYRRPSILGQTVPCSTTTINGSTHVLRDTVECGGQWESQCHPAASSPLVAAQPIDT
Experiment: Test Example 3: Guinea pig 5-HT4 receptor binding assay, [3H]-GR113808, striatum membranes (Table 98)
Settings: Guinea pig 5-HT4 receptor binding assay, [3H]-GR113808, striatum membranes; mean value of each group; read-out: IC50
Procedure: The guinea pig 5-HT4 receptor binding assay and preparations of receptor membrane preparations herein were carried out according to a method of Grossman et al. [see, British J. Pharmacol., (1993) 109, 618]. Slc-Hartley guinea pigs (body weight 300 g to 400 g) were decapitated to remove brain rapidly, and striatum was isolated which was cryopreserved at −80° C. until use. […]
Structures can show the parent of a compound that is named as a salt.

Record for CCc1nn(-c2noc(C3CCN(C4CCN(S(C)(=O)=O)CC4)CC3)n2)c2c(F)cccc12 under target or system 5-HT4 receptor (Cavia porcellus): IC50 reported as < 0.02 µM

Record for CC(C)c1nn(-c2noc(C3CCN(C4CCCC4)CC3)n2)c2c(F)c(F)ccc12 [Example 452, trifluoroacetate] under target or system 5-HT4 receptor (Cavia porcellus): IC50 reported as < 0.02 µM

Record for CCc1nn(-c2noc(C3CCN(C[C@@H]4CCN(C(=O)COC)C4)CC3)n2)c2c(F)cccc12 under target or system 5-HT4 receptor (Cavia porcellus): IC50 reported as < 0.02 µM

Record for CCc1nn(-c2noc(C3CCN(CC4CCN(C(=O)COC)CC4)CC3)n2)c2c(F)c(F)ccc12 [Example 477, trifluoroacetate] under target or system 5-HT4 receptor (Cavia porcellus): IC50 reported as < 0.02 µM

====

Target: 5-HT4 receptor (Cavia porcellus)
Construct: striatum was isolated which was cryopreserved at −80° C. until use; from tissue; host or cells: guinea pig (Slc-Hartley) striatum membranes
Test: Test Example 3: Guinea pig 5-HT4 receptor binding assay, [3H]-GR113808, striatum membranes (Table 98)
Settings: Guinea pig 5-HT4 receptor binding assay, [3H]-GR113808, striatum membranes; mean value of each group; read-out: IC50
Counter-ions that a name gives are not always drawn.
Assignment: determine reported IC50 for the given compounds.
// return numeric value only (unit: µM, not printed)

Input CC(C)(C)c1nn(-c2noc(C3CCN(C4CCN(C(=O)CO)CC4)CC3)n2)c2ccccc12 . Output IC50: 0.222

Input CC(C)c1nn(-c2noc(C3CCN(C4CCN(C(=O)C(=O)O)CC4)CC3)n2)c2c(F)cccc12 . Output IC50: 0.127

Input CCc1nn(-c2noc(C3CCN(CC4CN(C(=O)OC)C4)CC3)n2)c2c(F)c(F)ccc12 [Example 470, trifluoroacetate] . Output IC50: 0.03

Input COCC(=O)N1CC(CN2CCC(c3nc(-n4nc(C(C)C)c5ccc(F)c(F)c54)no3)CC2)C1 [Example 473, trifluoroacetate] . Output IC50: 0.0238

Input CC(C)c1nn(-c2noc(C3CCN(C4CCN(C(=O)CO)CC4)CC3)n2)c2c(F)c(O)ccc12 . Output IC50: 0.179

Input CC(=O)N1CCC(CN2CCC(c3nc(-n4nc(C(C)C)c5ccccc54)no3)CC2)CC1 [Example 475, trifluoroacetate] . Output IC50: 0.0679

Input CC(C)c1nn(-c2noc(C3CCN(C4CC[S+]([O-])CC4)CC3)n2)c2c(F)cccc12 (centres unmarked) . Output IC50: 0.0181

Input CC(=O)N1CCC(CN2CCC(c3nc(-n4nc(C(C)C)c5ccc(F)c(F)c54)no3)CC2)CC1 [Example 480, trifluoroacetate] . Output IC50: 0.0275

====

Molecular target: human 5-HT4b receptor (Homo sapiens)
Construct: expressed in transfected cells; host or cells: CHO cells (G418 selection)
Sequence (Q13639 whole entry): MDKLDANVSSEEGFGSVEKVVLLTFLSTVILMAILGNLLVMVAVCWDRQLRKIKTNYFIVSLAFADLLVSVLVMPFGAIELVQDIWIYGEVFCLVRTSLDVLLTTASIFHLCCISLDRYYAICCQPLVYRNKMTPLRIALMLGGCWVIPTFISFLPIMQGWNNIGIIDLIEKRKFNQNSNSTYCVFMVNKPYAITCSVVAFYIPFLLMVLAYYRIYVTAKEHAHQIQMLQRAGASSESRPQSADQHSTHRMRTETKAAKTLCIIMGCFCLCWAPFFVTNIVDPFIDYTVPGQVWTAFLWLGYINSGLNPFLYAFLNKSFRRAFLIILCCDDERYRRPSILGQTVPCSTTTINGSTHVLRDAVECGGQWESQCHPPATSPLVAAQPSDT
Assay: Test Example 4: Serotonin 4 (5-HT4) receptor agonist activity assay, cAMP HTRF in CHO cells (Table 100)
Type: cell-based
Conditions: concentration showing 50% of IA; mean value
Where a name gives a salt, the structure may show the parent alone.
Could you mark each record True if its EC50 falls strictly under 5 nM, and False if it equals or exceeds it?

Prompt line: In plain terms, does CC(=O)N1CCC(N2C3CCC2CC(c2nc(-n4nc(C(C)C)c5cccc(F)c54)no2)C3)CC1 (stereo not drawn) come in under 5 nM for EC50?
Response line: False

Prompt line: In plain terms, does CC(C)c1nn(-c2noc(C[C@H]3CCN(C[C@H]4CCN(C(=O)CO)C4)C3)n2)c2c(F)cccc12 come in under 5 nM for EC50?
Response line: True

Prompt line: In plain terms, does CCc1nn(-c2noc(C3CCN(CC4CN(C(C)=O)C4)CC3)n2)c2c(F)cccc12 [Example 223, hydrochloride] come in under 5 nM for EC50?
Response line: True

Prompt line: In plain terms, does CCc1nn(-c2noc(C3CCN(CC4CN(C(=O)COC)C4)CC3)n2)c2c(F)c(F)ccc12 [Example 469, trifluoroacetate] come in under 5 nM for EC50?
Response line: False

Prompt line: In plain terms, does CC(=O)NCCN(C1CCOCC1)C1CC(c2nc(-n3nc(C(C)C)c4cccc(F)c43)no2)C1 (stereo not drawn) come in under 5 nM for EC50?
Response line: False

Prompt line: In plain terms, does COCC(=O)N1CCC(C)(N2CCC(c3nc(-n4nc(C(C)C)c5cccc(F)c54)no3)CC2)CC1 come in under 5 nM for EC50?
Response line: True

Prompt line: In plain terms, does CC(=O)N1CCC[C@@H]1CN1CC[C@@H](Cc2nc(-n3nc(C(C)C)c4cccc(F)c43)no2)C1 come in under 5 nM for EC50?
Response line: False

Prompt line: In plain terms, does CC(C)c1nn(-c2noc(C[C@H]3CCN(CC4CN(C(=O)CO)C4)C3)n2)c2c(F)cccc12 come in under 5 nM for EC50?
Response line: True

Prompt line: In plain terms, does CCc1nn(-c2noc(C3CCN(CC4CCN(C(C)=O)CC4)CC3)n2)c2c(F)c(F)ccc12 [Example 478, trifluoroacetate] come in under 5 nM for EC50?
Response line: False

Prompt line: In plain terms, does COCC(=O)N1CCC(N2CCC(c3nc(-n4nc(C(C)C)c5cccc(F)c54)no3)CC2)CC1 [Example 233, hydrochloride] come in under 5 nM for EC50?
Response line: True

Prompt line: In plain terms, does CCc1nn(-c2noc(C3CCN(C[C@H]4CCN(S(C)(=O)=O)C4)CC3)n2)c2c(F)cccc12 come in under 5 nM for EC50?
Response line: True

Prompt line: In plain terms, does CCc1nn(-c2noc(C3CCN(C[C@@H]4CCN(C(C)=O)C4)CC3)n2)c2c(F)cccc12 come in under 5 nM for EC50?
Response line: False

Prompt line: In plain terms, does CC(C)c1nn(-c2noc(C3CCN(C4(C)CCN(S(C)(=O)=O)CC4)CC3)n2)c2c(F)cccc12 come in under 5 nM for EC50?
Response line: True

Prompt line: In plain terms, does Cc1nn(-c2noc(C3CCN(C4CCN(C(=O)CO)CC4)CC3)n2)c2c(F)cccc12 come in under 5 nM for EC50?
Response line: False

====

Target: human 5-HT4b receptor (Homo sapiens)
Construct: expressed in transfected cells; host or cells: CHO cells (G418 selection)
Experiment: Test Example 4: Serotonin 4 (5-HT4) receptor agonist activity assay, cAMP HTRF in CHO cells (Table 100)
Assay type: cell-based
Conditions: concentration showing 50% of IA; mean value
Where a name gives a salt, the structure may show the parent alone.
Assignment: determine reported EC50 for the given compounds.
// return numeric value only (unit: nM, not printed)

Input CC(C)c1nn(-c2noc(C3CCN(C4CCC4)CC3)n2)c2ccccc12 [Example 420, trifluoroacetate] . Output EC50: 8.2

Input COCCNC1CC(c2nc(-n3nc(C(C)C)c4cccc(F)c43)no2)C1 (centres unmarked) . Output EC50: 2.3

Input CCc1nn(-c2noc(C3CCN(CC4CCN(C(=O)CO)CC4)CC3)n2)c2c(F)cccc12 . Output EC50: 21.1

Input CC(C)c1nn(-c2noc(C3CCN(C4CCN(C(=O)CO)CC4)CC3)n2)c2ccccc12 . Output EC50: 33.5

Input CC(=O)N1CCC[C@@H]1CN1CC[C@H](Cc2nc(-n3nc(C(C)C)c4cccc(F)c43)no2)C1 . Output EC50: 7.8

Input CC(C)c1nn(-c2noc(C3CCN(C[C@H]4CCN(S(C)(=O)=O)C4)CC3)n2)c2c(F)cccc12 . Output EC50: 2.2

Input CC(=O)NCCCN[C@H]1C[C@@H](c2nc(-n3nc(C(C)C)c4cccc(F)c43)no2)C1 . Output EC50: 3.1

Input CC(C)c1nn(-c2noc(C3CCN(C(C)C)CC3)n2)c2c(F)c(F)ccc12 [Example 450, trifluoroacetate] . Output EC50: 15.8

Input CC(=O)N1CC[C@H](NC2CC(c3nc(-n4nc(C(C)C)c5cccc(F)c54)no3)C2)C1 (some centres unmarked) . Output EC50: 2.6

Input CC(=O)N1CCC(N2CC[C@@H](Cc3nc(-n4nc(C(C)C)c5cccc(F)c54)no3)C2)CC1 . Output EC50: 3.9

Input CC(=O)N1CC(CN2CC[C@@H](Cc3nc(-n4nc(C(C)C)c5cccc(F)c54)no3)C2)C1 . Output EC50: 10.2

Input CCc1nn(-c2noc(C3CCN(C4(C)CCN(C(=O)COC)CC4)CC3)n2)c2c(F)cccc12 . Output EC50: 2.1

Input CCc1nn(-c2noc(C3CCN(C4CCN(C(=O)CO)CC4)CC3)n2)c2c(F)cccc12 [compound 244, hydrochloride] . Output EC50: 3.9

Input CCc1nn(-c2noc(C3CCN(C4CCN(C(=O)COC)CC4)CC3)n2)c2c(F)c(F)ccc12 [Example 461, trifluoroacetate] . Output EC50: 4.4

Input CCc1nn(-c2noc(C3CCN(C[C@H]4CCN(C(=O)COC)C4)CC3)n2)c2c(F)cccc12 [Example 210, hydrochloride] . Output EC50: 5

Input CC(C)c1nn(-c2noc(C3(O)CCN(C4CCN(C(=O)CO)CC4)CC3)n2)c2c(F)cccc12 . Output EC50: 18.5

Input CC(C)c1nn(-c2noc(C[C@@H]3CCN(C[C@@H]4CCN(S(C)(=O)=O)C4)C3)n2)c2c(F)cccc12 . Output EC50: 7.2

Input CCc1nn(-c2noc(C3CCN(C[C@@H]4CCN(C(=O)COC)C4)CC3)n2)c2c(F)cccc12 . Output EC50: 5.8

Input CC(C)c1nn(-c2noc(CCCN3CCCCC3)n2)c2c(F)cccc12 . Output EC50: 3.1

Input CC(C)c1nn(-c2noc(C[C@H]3CCN(C[C@@H]4CCCN4S(C)(=O)=O)C3)n2)c2c(F)cccc12 . Output EC50: 3.4

Input CC(C)c1nn(-c2noc(C[C@@H]3CCN(CC4CN(C(=O)CO)C4)C3)n2)c2c(F)cccc12 . Output EC50: 6.4

Input CC(=O)N1CCC(CN[C@H]2C[C@@H](c3nc(-n4nc(C(C)C)c5cccc(F)c54)no3)C2)CC1 . Output EC50: 2.8

Input CC(C)c1nn(-c2noc(C[C@H]3CCN(C[C@H]4CCCN4S(C)(=O)=O)C3)n2)c2c(F)cccc12 . Output EC50: 14.4

Input CC(C)c1nn(-c2noc([C@H]3C[C@@H](NCC4CCCO4)C3)n2)c2c(F)cccc12 (relative stereo) . Output EC50: 4.1

Input CC(C)c1nn(-c2noc(C3CCN(C4(C)CCN(C(=O)N(C)C)CC4)CC3)n2)c2c(F)cccc12 . Output EC50: 2.5

Input COC(=O)N1CC(CN2CCC(c3nc(-n4nc(C(C)C)c5cccc(F)c54)no3)CC2)C1 [Example 220, hydrochloride] . Output EC50: 4.8

Input CC(=O)N1CC(CN2CCC(c3nc(-n4nc(C(C)C)c5ccccc54)no3)CC2)C1 [Example 467, trifluoroacetate] . Output EC50: 6.9

Input CC(C)c1nn(-c2noc(C[C@@H]3CCN(C[C@H]4CCCN4C(=O)CO)C3)n2)c2c(F)cccc12 . Output EC50: 14.1

Input COc1ccc(F)c2c1c(C(C)C)nn2-c1noc(C2CCN(C3CCN(C(C)=O)CC3)CC2)n1 . Output EC50: 34.2
